- Study system: μ opioid receptor (MOR) (Homo sapiens)
- Construct: expressed in transfected cells
- Sequence (P35372 whole entry): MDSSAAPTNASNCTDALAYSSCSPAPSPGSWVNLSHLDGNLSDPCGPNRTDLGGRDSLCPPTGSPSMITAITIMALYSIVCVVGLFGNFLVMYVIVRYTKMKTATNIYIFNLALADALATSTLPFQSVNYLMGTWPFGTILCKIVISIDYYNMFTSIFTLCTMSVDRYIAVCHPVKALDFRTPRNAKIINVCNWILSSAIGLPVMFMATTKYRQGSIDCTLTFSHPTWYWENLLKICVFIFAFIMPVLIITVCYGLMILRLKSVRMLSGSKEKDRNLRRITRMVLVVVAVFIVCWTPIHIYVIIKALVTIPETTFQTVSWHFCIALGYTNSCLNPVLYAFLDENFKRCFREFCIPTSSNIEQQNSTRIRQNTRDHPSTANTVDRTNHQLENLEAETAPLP
- Experimental details: cell-based
- Type: cell-based
- Test context: EC50 ± SEM μ
Value type: pEC50
Notebook: values listed as pEC50 are -log10 of the concentration (mol/L).

1) COC(=O)[C@@H]1C[C@H](NC(=O)c2ccccc2)C(=O)[C@H]2[C@@]1(C)CC[C@H]1C(=O)O[C@H](c3ccoc3)C[C@]21C [Compound 3, reference compound] = 8.52

Problem: # return recorded pEC50 for entry COC(=O)[C@@H]1C[C@H](OC(=O)c2ccccc2)C(=O)[C@H]2[C@@]1(C)CC[C@H]1C(=O)O[C@H](c3ccoc3)C[C@]21C [Compound 2, herkinorin, reference compound]
Solution: 7.41

* * *

- Study system: μ opioid receptor (MOR) (Homo sapiens)
- Construct: expressed in transfected cells
- Experimental details: cell-based
- Type: cell-based
- Test context: Series 1 EC50
Recorded pEC50 for the following compounds
Notebook: values listed as pEC50 are -log10 of the concentration (mol/L).

Some entries whose results are on file:
1) COC(=O)[C@@H]1C[C@H](OC(=O)c2ccccc2Cl)C(=O)[C@H]2[C@@]1(C)CC[C@H]1C(=O)O[C@H](c3ccoc3)C[C@]21C = 5.47
2) COC(=O)[C@@H]1C[C@H](OC(=O)c2cccc([N+](=O)[O-])c2)C(=O)[C@H]2[C@@]1(C)CC[C@H]1C(=O)O[C@H](c3ccoc3)C[C@]21C = 5.46
3) COC(=O)[C@@H]1C[C@H](OC(=O)c2ccncc2)C(=O)[C@H]2[C@@]1(C)CC[C@H]1C(=O)O[C@H](c3ccoc3)C[C@]21C = 6.47
4) COC(=O)[C@@H]1C[C@H](OC(=O)c2ccccc2[N+](=O)[O-])C(=O)[C@H]2[C@@]1(C)CC[C@H]1C(=O)O[C@H](c3ccoc3)C[C@]21C = 5.70
5) COC(=O)[C@@H]1C[C@H](OC(=O)c2ccccc2F)C(=O)[C@H]2[C@@]1(C)CC[C@H]1C(=O)O[C@H](c3ccoc3)C[C@]21C = 6.40
6) COC(=O)[C@@H]1C[C@H](OC(=O)c2cccc(C)c2)C(=O)[C@H]2[C@@]1(C)CC[C@H]1C(=O)O[C@H](c3ccoc3)C[C@]21C = 5.74
7) COC(=O)[C@@H]1C[C@H](OC(=O)c2cccs2)C(=O)[C@H]2[C@@]1(C)CC[C@H]1C(=O)O[C@H](c3ccoc3)C[C@]21C = 6.48
8) COC(=O)[C@@H]1C[C@H](OC(=O)c2ccc(C)cc2)C(=O)[C@H]2[C@@]1(C)CC[C@H]1C(=O)O[C@H](c3ccoc3)C[C@]21C = 6.37

Continue with the compound presented below.
Problem: # return recorded pEC50 for entry COC(=O)[C@@H]1C[C@H](OC(=O)c2ccc(F)cc2)C(=O)[C@H]2[C@@]1(C)CC[C@H]1C(=O)O[C@H](c3ccoc3)C[C@]21C
Solution: 6.10
